Provenance of the data: PubChem BioAssay (NCI)

Tested on: SF-539 CNS
procedure-details: NCI tumour cell line growth inhibition, 48 h
readout-type: TGI (µM)
Express it in µM; write the number only.

{"molecule": "Cc1nn(-c2nc3ccccc3s2)c(C)c1Oc1ccccc1O", "unit-spec": "µM", "TGI": 20.1}
{"molecule": "COc1cc(NS(C)(=O)=O)ccc1Nc1c2ccc(Cl)cc2nc2c(OC)cccc12", "unit-spec": "µM", "TGI": 0.681}
{"molecule": "CC[C@H](C)[C@H]1NC(=O)[C@@H](N[C@](C)(O)[C@@H](N)CC(C)C)[C@@H](C)OC(=O)[C@H](Cc2ccc(OC)cc2)N(C)C(=O)[C@@H]2CCCN2C(=O)[C@H](CC(C)C)NC(=O)[C@@H](C)C(=O)[C@H](C(C)C)OC(=O)C[C@@H]1O", "unit-spec": "µM", "TGI": 0.185}
{"molecule": "C[C@@H]1CN(C(=O)c2ccc(NC(=O)c3cc(O[C@H](C)c4c(Cl)ccc(F)c4Cl)c(N)nn3)cc2)C[C@H](C)N1", "unit-spec": "µM", "TGI": 5.07}

Attention now shifts to the item below.
What value of measured TGI is listed for CC1(c2ccc(F)cc2)CC(c2ccc(F)cc2)=C(C#N)C(=C(C#N)C#N)N1 (stereo not given) ? 78.4
